biological target: ATP-binding cassette sub-family C member 2 (Homo sapiens, UniProt Q92887)
Sequence (Q92887 whole entry): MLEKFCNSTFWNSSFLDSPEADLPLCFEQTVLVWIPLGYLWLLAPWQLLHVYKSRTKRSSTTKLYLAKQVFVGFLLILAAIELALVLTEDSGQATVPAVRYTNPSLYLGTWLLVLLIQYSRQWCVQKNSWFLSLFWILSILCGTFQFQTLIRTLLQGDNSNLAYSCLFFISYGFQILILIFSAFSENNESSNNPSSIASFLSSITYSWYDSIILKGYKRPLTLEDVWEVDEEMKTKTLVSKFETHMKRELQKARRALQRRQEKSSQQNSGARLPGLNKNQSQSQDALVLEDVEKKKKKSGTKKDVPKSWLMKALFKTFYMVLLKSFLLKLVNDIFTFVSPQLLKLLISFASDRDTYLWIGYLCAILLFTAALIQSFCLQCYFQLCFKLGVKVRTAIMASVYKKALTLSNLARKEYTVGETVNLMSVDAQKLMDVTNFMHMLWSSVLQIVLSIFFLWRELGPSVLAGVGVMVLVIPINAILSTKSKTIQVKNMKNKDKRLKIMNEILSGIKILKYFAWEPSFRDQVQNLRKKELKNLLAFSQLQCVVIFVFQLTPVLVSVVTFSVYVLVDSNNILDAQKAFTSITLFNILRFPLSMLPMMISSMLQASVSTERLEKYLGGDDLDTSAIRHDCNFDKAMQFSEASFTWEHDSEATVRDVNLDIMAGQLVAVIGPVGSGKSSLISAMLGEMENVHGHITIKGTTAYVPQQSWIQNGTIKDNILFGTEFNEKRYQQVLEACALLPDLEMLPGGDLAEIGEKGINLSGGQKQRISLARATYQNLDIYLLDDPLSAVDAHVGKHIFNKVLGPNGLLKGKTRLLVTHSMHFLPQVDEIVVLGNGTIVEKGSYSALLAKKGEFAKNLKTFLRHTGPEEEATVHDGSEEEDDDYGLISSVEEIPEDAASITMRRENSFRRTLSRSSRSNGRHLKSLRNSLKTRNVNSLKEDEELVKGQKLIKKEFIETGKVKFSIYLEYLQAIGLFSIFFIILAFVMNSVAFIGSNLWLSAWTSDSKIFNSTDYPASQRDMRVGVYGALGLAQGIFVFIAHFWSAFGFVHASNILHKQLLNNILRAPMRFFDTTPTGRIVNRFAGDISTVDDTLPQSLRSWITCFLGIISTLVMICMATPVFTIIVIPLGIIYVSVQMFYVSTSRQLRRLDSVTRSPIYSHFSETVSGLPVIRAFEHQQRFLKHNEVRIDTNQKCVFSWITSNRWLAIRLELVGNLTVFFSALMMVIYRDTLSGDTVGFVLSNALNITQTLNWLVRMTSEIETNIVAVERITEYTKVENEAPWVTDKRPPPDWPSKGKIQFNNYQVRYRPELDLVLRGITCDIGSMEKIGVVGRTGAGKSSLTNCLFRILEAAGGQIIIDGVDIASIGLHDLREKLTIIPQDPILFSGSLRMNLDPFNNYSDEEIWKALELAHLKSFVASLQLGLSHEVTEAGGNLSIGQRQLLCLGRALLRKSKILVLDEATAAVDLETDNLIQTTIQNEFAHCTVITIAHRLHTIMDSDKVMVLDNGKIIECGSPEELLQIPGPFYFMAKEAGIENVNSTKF
reported-endpoint: IC50

The recorded IC50 for entry CC(C)C[C@](C)(N)COc1ccc(-c2ccnc(C(F)F)c2)nc1C(F)F [PILAVAPADIN] equals > 30 µM

----------
assay: AUC (infinity) in monkey at 2 mg/kg, iv; format: ADME, organism-based, Macaca mulatta; parameters: time infinity, route intravenous, dose 2 mg/kg; settings: rhesus monkey, in vivo
reported-endpoint: AUC(0-inf)

Note to self: AUC(0-inf) recorded for CC(C)C[C@](C)(N)COc1ccc(-c2ccnc(C(F)F)c2)nc1C(F)F was 980 ng·h/mL

----------
experiment: Volume of distribution at steady state in dog at 2 mg/kg, iv; format: ADME, organism-based, Canis lupus familiaris; conditions: in vivo, read-out: Vdss
reported-endpoint: Vd (L/kg)
Respond numerically; units are L/kg and should not be typed.

Looking up CC(C)C[C@](C)(N)COc1ccc(-c2ccnc(C(F)F)c2)nc1C(F)F , I found its Vd recorded as 11.8
